target: biotinylated His-Avi-TEAD (194-411) (UniProt P28347); test: SSM screen, enrichment after two rounds of sorting
MEASUREMENT_LABEL: enrichment score

# BINDER, ASSAY_RESULT
records = [
    ("GSPDEYIERAKECCTKGDIQCCLRYFEESGDPNVMLICLFCP (designed binder) [K13T variant of SEQ ID NO: 1]", 1.49),
]

1 = GSPDHYIERAKECCKKGDIQCCLRYFEESGDPNVMLICLFCP (designed binder) [E03H variant of SEQ ID NO: 1]
2 = GSYDEYIERAKECCKKGDIQCCLRYFEESGDPNVMLICLFCP (designed binder) [P01Y variant of SEQ ID NO: 1]
Which record would sort first by descending enrichment score, 1 or 2 ? Lab note: record the label of whichever item you select.
1

Values were extracted from patent US20230151068A1.
